Below, each of the compounds is paired with its reported Plant response rating, Panicum, Fall value.
Test system: panicum, fall (fall panicum, Panicum dichotomiflorum)
TEST: Test E greenhouse herbicide test, pre- and postemergence
Assay type: in vivo
TEST CONTEXT: Preemergence, 31 g ai/ha; scale 0 to 100, 0 no effect, 100 complete control
From the text: […]
MEASURED ATTRIBUTE: Plant response rating, Panicum, Fall

1) Cc1nn(C)c(=O)c(-c2ccc(Br)c3ccccc23)c1O	10
2) Cc1ccc2sc(C)c(-c3c(OC(=O)OC(C)C)c(C)nn(C)c3=O)c2c1	60
3) COC(=O)Oc1c(C)nn(C)c(=O)c1-c1c(C)sc2ccc(C)cc12	90
4) Cc1cc(C)c2sc(C)c(-c3c(O)c(C)nn(C)c3=O)c2c1	85

====

System: oilseed rape (Brassica napus)
TEST: Test C greenhouse herbicide test, pre- and postemergence
Type: in vivo
TEST CONTEXT: Preemergence, 31 g ai/ha; scale 0 to 100, 0 is no effect, 100 is complete control
From the text: […]
MEASURED ATTRIBUTE: Plant response rating, Oilseed Rape

1. CC(=O)Oc1c(C)nn(C)c(=O)c1-c1c(C)sc2ccc(C(F)(F)F)cc12	70
2. CCCC(=O)Oc1c(C)nn(C)c(=O)c1-c1c(C)sc2ccc(C)cc12	0
3. CC(=O)Oc1c(Cl)nn(C)c(=O)c1-c1c(C)sc2ccc(Cl)cc12	85
4. CC(=O)Oc1c(C)nn(C)c(=O)c1-c1c(C)cc(C)c2ccccc12	0
5. COC(=O)Oc1c(C)nn(C)c(=O)c1-c1c(C)sc2ccc(C)cc12	0
6. Cc1nn(C)c(=O)c(-c2ccc(Br)c3ccccc23)c1O	30
7. Cc1ccc2ccccc2c1-c1c(O)c(C(F)(F)F)nn(C)c1=O	0
8. Cc1nn(C)c(=O)c(-c2ccc(F)c3ccccc23)c1O	5

====

Tested on: chickweed (common chickweed, Stellaria media)
TEST: Test C greenhouse herbicide test, postemergence
Format: in vivo
TEST CONTEXT: Postemergence, 31 g ai/ha; 0 to 100 scale (0 no effect, 100 complete control)
Below, each of the molecules is paired with its reported Chickweed plant response rating value.
MEASURED ATTRIBUTE: Chickweed plant response rating

1) CC(=O)Oc1c(C)nn(C)c(=O)c1-c1c(C)cc(C)c2ccccc12	90
2) Cn1nc(Br)c(O)c(-c2cccc3ccccc23)c1=O	90
3) CCc1sc2ccc(C)cc2c1-c1c(O)c(C)nn(C)c1=O	90
4) COC(=O)Oc1c(C)nn(C)c(=O)c1-c1c(C)sc2ccc(C)cc12	90
5) Cc1ccc2ccccc2c1-c1c(O)c(I)nn(C)c1=O	95
6) Cc1ccc2sc(Br)c(-c3c(O)c(C)nn(C)c3=O)c2c1	90
7) Cc1ccc2ccccc2c1-c1c(O)c(Br)nn(C)c1=O	100
8) Cc1ccc2sc(C)c(-c3c(OC(=O)OC(C)C)c(C)nn(C)c3=O)c2c1	90

====

Test system: oilseed rape (Brassica napus)
TEST: Test C greenhouse herbicide test, pre- and postemergence
Type: in vivo
TEST CONTEXT: Preemergence, 250 g ai/ha; scale 0 to 100, 0 no effect, 100 complete control
# if value of Oilseed Rape plant response rating reaches 60, tag criterion met; if it stays below, tag criterion not met

1) Cc1ccc2ccccc2c1-c1c(O)c(I)nn(C)c1=O	criterion met
2) Cc1nn(C)c(=O)c(-c2ccc(Br)c3ccccc23)c1O	criterion met
3) CCC(=O)Oc1c(C)nn(C)c(=O)c1-c1ccc(Br)c2ccccc12	criterion met
4) Cc1ccc2sc(Br)c(-c3c(O)c(C)nn(C)c3=O)c2c1	criterion not met
5) COC(=O)Oc1c(C)nn(C)c(=O)c1-c1c(C)sc2ccc(C)cc12	criterion not met
6) Cc1cc2ccccc2c(-c2c(O)c(C)nn(C)c2=O)c1C	criterion met
7) Cc1ccc2sc(C)c(-c3c(OC(=O)OC(C)C)c(C)nn(C)c3=O)c2c1	criterion not met
8) Cc1sc2ccccc2c1-c1c(O)c(Cl)nn(C)c1=O	criterion met
